System: Bacillus subtilis
Experiment: Antibacterial activity against Bacillus subtilis ATCC 23857 assessed as reduction in bacterial cell growth measured for 18 hrs by Mueller-Hinton broth based two-fold serial dilution method
Assay type: functional
Square brackets hold non-standard residues; d marks the D form. Peptide text beside a SMILES is read from it. * marks the point of attachment. Pentadecanoyl = CCCCCCCCCCCCCCC(=O)*; NMeR = CN[C@@H](CCCNC(=N)N)C(=O)O; NMeI = CC[C@H](C)[C@H](NC)C(=O)O; Tridecanoyl = CCCCCCCCCCCCC(=O)*; NMeL = CN[C@@H](CC(C)C)C(=O)O; NMeK = CN[C@@H](CCCCN)C(=O)O; Nonanoyl = CCCCCCCCC(=O)*
experimental_endpoint: MIC (µM)
Express your answer in µM, writing the number without its unit.

// worked examples, MIC included
[[record]]
molecule = "CCCCCCCCCCCCC(=O)NCC(=O)N[C@@H](CC(C)C)C(=O)N[C@@H](CC(C)C)C(=O)N[C@@H](CCCCN)C(=O)N(C)[C@@H](CCCNC(=N)N)C(=O)N[C@H](C(=O)N(C)[C@@H](CCCCN)C(=O)N[C@H](C(=O)N[C@@H](CC(C)C)C(=O)N[C@@H](CC(C)C)C(N)=O)[C@@H](C)O)[C@@H](C)CC (Tridecanoyl-GLLK[NMeR]I[NMeK]TLL-NH2)"
experimental_endpoint = "MIC"
endpoint_result = 4

[[record]]
molecule = "CCCCCCCCC(=O)NCC(=O)N[C@@H](CC(C)C)C(=O)N[C@@H](CC(C)C)C(=O)N(C)[C@@H](CCCCN)C(=O)N[C@@H](CCCNC(=N)N)C(=O)N[C@H](C(=O)N(C)[C@@H](CCCCN)C(=O)N[C@H](C(=O)N[C@@H](CC(C)C)C(=O)N[C@@H](CC(C)C)C(N)=O)[C@@H](C)O)[C@@H](C)CC (Nonanoyl-GLL[NMeK]RI[NMeK]TLL-NH2)"
experimental_endpoint = "MIC"
endpoint_result = 16

[[record]]
molecule = "CCCCCCCCC(=O)NCC(=O)N[C@@H](CC(C)C)C(=O)N[C@@H](CC(C)C)C(=O)N[C@@H](CCCCN)C(=O)N(C)[C@@H](CCCNC(=N)N)C(=O)N[C@H](C(=O)N(C)[C@@H](CCCCN)C(=O)N[C@H](C(=O)N[C@@H](CC(C)C)C(=O)N[C@@H](CC(C)C)C(N)=O)[C@@H](C)O)[C@@H](C)CC (Nonanoyl-GLLK[NMeR]I[NMeK]TLL-NH2)"
experimental_endpoint = "MIC"
endpoint_result = 8

[[record]]
molecule = "CCCCCCCCCCCCCCC(=O)NCC(=O)N[C@@H](CC(C)C)C(=O)N[C@@H](CC(C)C)C(=O)N[C@@H](CCCCN)C(=O)N(C)[C@@H](CCCNC(=N)N)C(=O)N[C@H](C(=O)N(C)[C@@H](CCCCN)C(=O)N[C@H](C(=O)N[C@@H](CC(C)C)C(=O)N[C@@H](CC(C)C)C(N)=O)[C@@H](C)O)[C@@H](C)CC (Pentadecanoyl-GLLK[NMeR]I[NMeK]TLL-NH2)"
experimental_endpoint = "MIC"
endpoint_result = 8

[[record]]
molecule = "CCCCCCCCCCCCC(=O)NCC(=O)N[C@@H](CC(C)C)C(=O)N(C)[C@@H](CC(C)C)C(=O)N[C@@H](CCCCN)C(=O)N[C@@H](CCCNC(=N)N)C(=O)N(C)[C@H](C(=O)N[C@@H](CCCCN)C(=O)N[C@H](C(=O)N[C@@H](CC(C)C)C(=O)N[C@@H](CC(C)C)C(N)=O)[C@@H](C)O)[C@@H](C)CC (Tridecanoyl-GL[NMeL]KR[NMeI]KTLL-NH2)"
experimental_endpoint = "MIC"
endpoint_result = 4


Now let's try a different one.
Q: Under Bacillus subtilis: report MIC of CCCCCCCCCCCCC(=O)NCC(=O)N[C@@H](CC(C)C)C(=O)N[C@@H](CC(C)C)C(=O)N(C)[C@@H](CCCCN)C(=O)N[C@@H](CCCNC(=N)N)C(=O)N[C@H](C(=O)N(C)[C@@H](CCCCN)C(=O)N[C@H](C(=O)N[C@@H](CC(C)C)C(=O)N[C@@H](CC(C)C)C(N)=O)[C@@H](C)O)[C@@H](C)CC (Tridecanoyl-GLL[NMeK]RI[NMeK]TLL-NH2) .
Ans: 4
